I'd appreciate it if you could supply viability values for the items below.
experiment: SK-BR-3 cell growth inhibitors, pilot screen, 24 h, human (AID 572); conditions: SK-BR-3 viability, CellTiter-Glo luminescence, at 10 µM, stronger effect = lower value;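 also: compound exposure lasted between 18 and 24 h rather than exactly 24 h; 100% = carrier-treated control wells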
Field: numeric (%). Do not append units.

The reported viability of the compound Cc1cc(C)n2nc(SCC(=O)N(C)c3ccccc3)nc2n1 was 89.5

The reported viability of the compound COC(=O)c1ccc(COc2ccc(C3C4=C(CCCC4=O)Nc4onc(C)c43)cc2)cc1 (stereo unspecified) was 104

The reported viability of the compound Nn1cc(-c2ccccc2)nc1SCC(=O)N1CCN(S(=O)(=O)c2ccccc2)CC1 was 77

The reported viability of the compound CC(C)CC(c1nnnn1C(C)(C)C)N1CCN(C2CCCC2)CC1 (stereo unspecified) was 101

The reported viability of the compound Cc1cc(C(=O)Nc2nc3c(s2)CCCC3)cs1 was 93

The reported viability of the compound O=S(=O)(c1ccc2c(c1)OCCO2)N1CCC(n2nnc3cc(F)ccc32)CC1 was 91

The reported viability of the compound COc1cccc(/C=N/n2c(-c3ccco3)nc3ccccc3c2=O)c1 was 71

The reported viability of the compound COc1ccc(OC)c(NS(=O)(=O)Cc2ccccc2)c1 was 63

The reported viability of the compound CC(=O)c1ccc(N2CCN(C(=O)c3cc(C)on3)CC2)cc1 was 100

The reported viability of the compound CCOc1ccc2c(c1)c1nnc(SCC(=O)N3CCC(C)CC3)nc1n2C was 84

The reported viability of the compound Cc1ccc2c(c1)CCCN2C(=O)C1CCCO1 (stereo unspecified) was 101

The reported viability of the compound N#Cc1cnn(Cc2ccc(Cl)cc2)c1N was 92

The reported viability of the compound CC(C)=CCSc1nnc(CCNC(=O)OC(C)(C)C)o1 was 96

The reported viability of the compound CC(=O)NCc1ccc(C(=O)CSc2nnc(-c3ccncc3)n2Cc2ccccc2)o1 was 99.5

The reported viability of the compound Cc1ccccc1C(=O)NC1CCN(Cc2nnnn2Cc2ccccc2)CC1 was 93.5

The reported viability of the compound CCOC(=O)c1ccc(Oc2nc(NC)nc(OC)n2)cc1 was 100

The reported viability of the compound CCCC(=O)Nc1c2c(nn1-c1ccc(OC)cc1)CS(=O)C2 (stereo unspecified) was 103

The reported viability of the compound OC[C@H]1O[C@@H](n2cnc3c(NC4CCCC4)ncnc32)[C@H](O)[C@@H]1O was 113

The reported viability of the compound CC(C)COC(=O)C1C2C=CC3(CN(C(C)c4ccc(Br)cc4)C(=O)C13)O2 (stereo unspecified) was 114

The reported viability of the compound COc1ccc(NC(=O)CSc2ccccn2)cc1OC was 87

The reported viability of the compound Cc1ccc(-n2ncc3c(N4CCN(c5ccccc5)CC4)ncnc32)c(C)c1 was 93

Provenance of the data: PubChem BioAssay
